- assay-details: HILIC, Merck SeQuant ZIC-HILIC, 25 °C, 0.25 mL/min; A: water + 16 mM ammonium formate; B: acetonitrile + 0.1% formic acid, pH 3; gradient (min/%B) 0/97 2/97 10/70 15/10 17/10 18/97 25/97
- reported-conditions: stereoisomer not certain
Listed molecules paired with reported LC retention time
Give just the numeric value; min need not be written.

A selection of reference data follows.
Fill in reported LC retention time for this entry: Nc1cc([O-])cc(C(=O)O)c1 [3-AMINO-5-HYDROXYBENZOATE]
2.16

Look up and state reported LC retention time for Nc1nc2c(ncn2C2OC3COP(=O)(O)OC3C2O)c(=O)[nH]1 (centres undefined)
13.4

Answer with the recorded LC retention time of O=C(O)C(=O)CS [MERCAPTOPYRUVATE] only.
13.8

Give LC retention time for the following molecule: `NCCCCN`
17.4

# return recorded LC retention time for entry O=C1OC(C(O)CO)C(O)=C1O (centres undefined) [ASCORBATE]
10.5

---
Give recorded LC retention time. O=C(O)C(O)C(O)C(=O)O (centres undefined) [TARTRATE D]
14.2

Determine from records and report LC retention time for `Cc1cccnc1`
2.16

Recall and state the measured LC retention time for CC(=O)NC(CC(N)=O)C(=O)O (centres undefined) .
9.75

Tell me LC retention time reported for CCCCCCCCCCCCCCCCCCOCC(O)COP(=O)([O-])OCC[N+](C)(C)C (centres undefined)
11.3

State, in one line, measured LC retention time of CCCCCCCCC=CCCCCCCCC(=O)OCC(O)COP(=O)(O)OCCN (centres undefined)
10.3

Note LC retention time for the molecule shown: O=C(O)C(O)C(O)C(O)C(O)CO (centres undefined) [GLUCONATE]
13.6

Output measured LC retention time for this item: CC=CC=CC(=O)O [SORBATE]
1.8

Give reported LC retention time value for NCC(O)CCC(N)C(=O)O (centres undefined) [5-HYDROXYLYSINE]
16.2

Provide LC retention time value for the following molecule: `CN=C(N)N`
12

Please supply the value of reported LC retention time for the item O=S(=O)(O)c1ccc(O)c(O)c1 [3-4-dihydroxybenzenesulfonic acid]
12.8

Give me measured LC retention time, please, for this molecule: CC(C)C(C(=O)O)C(O)C(=O)O (centres undefined)
2.19

Give me measured LC retention time, please, for this molecule: `Cn1cnc2[nH]c(=O)[nH]c(=O)c21`
2.21

###

- assay-details: HILIC, Merck SeQuant ZIC-HILIC, 25 °C, 0.25 mL/min; A: water + 16 mM ammonium formate; B: acetonitrile + 0.1% formic acid, pH 3; gradient (min/%B) 0/97 2/97 10/70 15/10 17/10 18/97 25/97
- reported-conditions: stereoisomer not certain
Classify: true (1) when LC retention time is strictly less than 10 min; false (0) when LC retention time is not.

Would you kindly verify if LC retention time of CSCCC(O)C(=O)O (centres undefined) [2-HYDROXY-4-(METHYLTHIO)BUTANOATE] is strictly less than 10 min?
true (1)

Does OCC1OC(OC2OC(CO)C(O)C(O)C2O)C(O)C(O)C1O (centres undefined) have LC retention time strictly under 10 min?
false (0)

Does Nc1ncnc2c1ncn2C1OC(COP(=O)(O)OP(=O)([O-])OCC2OC([n+]3cccc(C(=O)O)c3)C(O)C2O)C(O)C1OP(=O)(O)O (centres undefined) [NICOTINIC ACID ADENINE DINUCLEOTIDE PHOSPHATE] have LC retention time strictly under 10 min?
false (0)

Please check: LC retention time for NC(N)=NCC(=O)O [GUANIDINOACETATE] , strictly under 10 min or not?
false (0)

I wonder whether Nc1c(O)cccc1C(=O)CC(N)C(=O)O (centres undefined) [HYDROXYKYNURENINE] has LC retention time below 10 min. Can you tell?
false (0)

Consider `CC(C)(CC(=O)O)CC(=O)O` . Does its LC retention time lie strictly below 10 min?
true (1)

Please state whether LC retention time is below 10 min for O=C(O)C(COP(=O)(O)O)OP(=O)(O)O (centres undefined)
false (0)

Strictly below 10 min: is that where LC retention time of `NCCCNCCCN` sits?
false (0)

***
Hi there! Is LC retention time for `CN1CC(=O)NC1=N` below 10 min, do you know?
false (0)

###

- assay-details: HILIC, Merck SeQuant ZIC-HILIC, 25 °C, 0.25 mL/min; A: water + 16 mM ammonium formate; B: acetonitrile + 0.1% formic acid, pH 3; gradient (min/%B) 0/97 2/97 10/70 15/10 17/10 18/97 25/97
- reported-conditions: stereoisomer not certain
Where a name gives a salt, the structure may show the parent alone.
Items are presented alongside their recorded LC retention time.
Expressed in min, but write only the number.

Example molecules with recorded LC retention time:
Give the measured LC retention time for `CC(C)(CC(=O)O)C(=O)O`
2.18

# return recorded LC retention time for entry `N[C@@H](Cc1ccc(O)c([N+](=O)[O-])c1)C(=O)O`
11.1

Specify reported LC retention time for the molecule shown: O=C(O)c1ccc2ccccc2c1[O-] [1-HYDROXY-2-NAPHTHOATE]
1.77

Tell us which LC retention time value is on record for NCCc1cc(O)c(O)cc1O [6-HYDROXYDOPAMINE]
12.6

Tell me its LC retention time given NC(N)=NC(CC(=O)O)C(=O)O (stereo not given) [GUANIDINOSUCCINATE] as the entry.
14.4

// Input: O=C(OC1Cc2c(O)cc(O)cc2OC1c1cc(O)c(O)c(O)c1)c1cc(O)c(O)c(O)c1 (single isomer, unassigned; (-)) [(-)-Epigallocatechin gallate] . Output its LC retention time only.
12.4

---
Return the recorded LC retention time value; entry: NC(=O)c1ccc[n+](C2OC(COP(=O)(O)OP(=O)(O)OCC3OC(n4cnc5c(=O)[nH]cnc54)C(O)C3O)C(O)C2O)c1 (stereo not given) [NICOTINAMIDE HYPOXANTHINE DINUCLEOTIDE]
14.8

Specify reported LC retention time for the molecule shown: Cc1cc(O)cc2c1OC(C)(CCC(=O)O)CC2 (stereo not given)
1.87

Consider the molecule COC(=O)C(=O)OC [Dimethyl oxalate] . State its measured LC retention time.
2.24

Give the measured LC retention time for `C[n+]1cccc(C(=O)[O-])c1`
13

Quick one: give measured LC retention time for `O=CCc1c[nH]c2ccccc12`
10

Give reported LC retention time value for CCC(C)C(N)C(=O)O (stereo not given)
11.6

Give the measured LC retention time for O=C(O)Cc1c[nH]c2ccccc12 [INDOLE-3-ACETATE]
2.06

Note LC retention time for the molecule shown: O=C(O)CCCCCCC(=O)O [SUBERATE]
1.91

Quick one: give measured LC retention time for `CNCC(=O)O`
13.6

###

- assay-details: HILIC, Merck SeQuant ZIC-HILIC, 25 °C, 0.25 mL/min; A: water + 16 mM ammonium formate; B: acetonitrile + 0.1% formic acid, pH 3; gradient (min/%B) 0/97 2/97 10/70 15/10 17/10 18/97 25/97
- reported-conditions: stereoisomer not certain
// boundary case: LC retention time equal to 4 min maps to false; strictly smaller maps to true

Here's what some known entries look like.
Take the compound `O=C(O)C=CC(=O)O` and say whether its LC retention time is less than 4 min.
false

Please check: LC retention time for `N[C@@H](Cc1ccccc1)C(=O)O` , strictly under 4 min or not?
false

For COC(=O)Cc1c[nH]c2ccccc12 [INDOLE-3-METHYL ACETATE] , is the recorded LC retention time below the cut-off of 4 min?
true

Regarding NC(C(=O)O)c1ccccc1 (stereo not given) , kindly confirm whether its LC retention time is beneath 4 min.
false

I'd appreciate it if you could check whether Nc1ncnc2c1ncn2C1OC(CO)C(OP(=O)(O)O)C1O (stereo not given) [Adenosine 3'-monophosphate free acid] has LC retention time smaller than 4 min.
false

Is it true that LC retention time reported for CCCCCCCCCCCCCC=CC(O)C(COP(=O)([O-])OCC[N+](C)(C)C)NC(=O)CCCCCCCCCCCCCCCCC (stereo not given) is less than 4 min?
false

Quick check: does OCC1OC(OCC2OC(OC3(CO)OC(CO)C(O)C3O)C(O)C(O)C2O)C(O)C(O)C1O (stereo not given) have LC retention time under 4 min?
false

Record NC(=O)CCCCC1CCSS1 (stereo not given) [LIPOAMIDE] : is its LC retention time strictly below 4 min?
true

I wonder whether Nc1ncnc2c1ncn2C1OC(COP(=O)(O)O)C(OP(=O)(O)O)C1O (stereo not given) [ADENOSINE 3'-5'-DIPHOSPHATE] has LC retention time below 4 min. Can you tell?
false

Hi there! Is LC retention time for O=c1[nH]c(=O)c2ncn(C3OC(COP(=O)(O)O)C(O)C3O)c2[nH]1 (stereo not given) [XANTHOSINE-MONOPHOSPHATE] below 4 min, do you know?
false

More entries:
Record CC(C)CC(O)C(=O)O (stereo not given) [2-Hydroxyisocaproic acid] : is its LC retention time strictly below 4 min?
true

Value source: the RepoRT retention time repository
